# procedureText: Nuclear factor erythroid 2-related factor 2/antioxidant responsive element (Nrf2/ARE) small molecule agonists: luciferase reporter gene qHTS assay in human keratinocytes (AID 1919969); also: nearly all actives have a fitted effect of over 35% in size
# runParameters: KeratinoSens HaCaT ARE-luciferase, luminescence, 24 h; series mostly up to 92.4 µM
# Description: National Center for Advancing Translational Sciences [NCATS] Division of Preclinical Innovation [DPI] U.S. Environmental Protection Agency [EPA] National Institutes of Environmental Health Sciences [NIEHS] National Toxicology Program [NTP] […] Oxidative stress has been implicated in the pathogenesis of a variety of diseases ranging from cancer to neurodegeneration. […] The activation of the report gene under culture conditions can be detected by ONE-Glo Luciferase Assay System (Promega, Madison, WI). […]
Records with an inconclusive call do not appear. Calls of active or inactive are those of the source. Calls follow the shape of the full dose curve.
Outcome codes: Y for active, N for inactive

>>> discretelabel("CN[C@@H](C)[C@H](O)c1ccccc1")
"N"
>>> discretelabel("C=CCC1(C(C)CC)C(=O)NC(=O)NC1=O (stereo not given)")
"N"
>>> discretelabel("c1ccc2nc(N3CCNCC3)ccc2c1")
"N"
>>> discretelabel("O=C(Nc1ccc2[nH]ccc2c1)c1cc2cc(F)ccc2n1Cc1cccc(F)c1")
"N"
>>> discretelabel("CC[N+]1(CCOC(=O)C(O)(c2ccccc2)c2ccccc2)CCCCC1")
"N"
>>> discretelabel("CCCN(CCC)c1c([N+](=O)[O-])cc(S(N)(=O)=O)cc1[N+](=O)[O-]")
"N"
>>> discretelabel("CC(C)[C@@H](Nc1ccc(C(F)(F)F)cc1Cl)C(=O)OC(C#N)c1cccc(Oc2ccccc2)c1 (stereo not given in full)")
"N"
>>> discretelabel("CCCCC(CC)COP(=O)(Oc1ccccc1)Oc1ccccc1 (stereo not given)")
"Y"
>>> discretelabel("CNC(=O)O/N=C(\\C)C(C)S(C)(=O)=O (stereo not given)")
"Y"
>>> discretelabel("Cc1cc2c3c(c1)C(c1ccccc1)=N[C@@H](NC(=O)c1ccncc1)C(=O)N3CC2")
"N"
>>> discretelabel("CCCSC(=O)N(CCC)CCC")
"N"
>>> discretelabel("CCC[CH2][Sn]([CH2]CCC)([CH2]CCC)[O]C(=O)c1ccccc1")
"Y"
>>> discretelabel("[CH3][Hg][Cl]")
"Y"
>>> discretelabel("Nc1cc(Cl)ccc1O")
"Y"
>>> discretelabel("Cc1ccc2cc3c(ccc4ccccc43)c3c2c1CC3")
"N"
>>> discretelabel("Oc1ccc(C2(c3ccc(O)cc3)CCCCC2)cc1")
"N"
>>> discretelabel("N#Cc1sc2c(=O)c3ccccc3c(=O)c=2sc1C#N")
"Y"
>>> discretelabel("COc1cc(OC)c(OC)cc1C=O")
"N"
>>> discretelabel("COc1ccc2c(c1OC)CN1CCc3cc4c(cc3C1C2)OCO4 (stereo not given)")
"N"
>>> discretelabel("CCOP(=S)(OCC)Oc1cc(Cl)c(Br)cc1Cl")
"Y"
>>> discretelabel("O=[N+]([O-])c1ccc(Oc2ccc(C(F)(F)F)cc2[N+](=O)[O-])cc1")
"Y"
>>> discretelabel("O=C1OC(c2ccc(O)c(S(=O)(=O)O)c2)(c2ccc(O)c(S(=O)(=O)O)c2)c2c(Br)c(Br)c(Br)c(Br)c21")
"Y"
>>> discretelabel("COc1ccc(C(c2ccc(OC)cc2)C(Cl)(Cl)Cl)cc1")
"Y"
>>> discretelabel("CN(C)CCc1c[nH]c2cccc(O)c12")
"Y"
>>> discretelabel("Clc1ccccc1N1CCNCC1")
"N"

###

# target: 5-hydroxytryptamine receptor 2A (Homo sapiens)
# procedureText: 5-hydroxytryptamine receptor 2A (HTR2A) small molecule agonists, cell-based qHTS assay (AID 1963587); also: nearly all actives have a fitted effect of over 30% in size
# runParameters: HTR2A-CHO cells, calcium flux fluorescence, agonist mode; series mostly up to 76.8 µM
Inconclusive results are not listed. Activity calls are given as the source filed them. Calls come from the whole dose curve.
Outcome codes: active, inactive

>>> discretelabel("Cl/C=C\\Cl")
"inactive"
>>> discretelabel("O=[N+]([O-])c1ccc(Cl)c(Cl)c1Cl")
"inactive"
>>> discretelabel("CNCC(=O)c1ccc(O)c(O)c1")
"inactive"
>>> discretelabel("CCOP(=S)(OCC)Oc1cc(Cl)c(Br)cc1Cl")
"inactive"
>>> discretelabel("Nc1c(Cl)c(Cl)c(Cl)c(Cl)c1Cl")
"inactive"
>>> discretelabel("C=CC(C)(CCC=C(C)C)OC(=O)c1ccccc1N (stereo not drawn)")
"inactive"
>>> discretelabel("CCCSP(=S)(OCC)Oc1ccc(SC)cc1 (stereo not drawn)")
"inactive"
>>> discretelabel("COP(=O)(OC)O/C(=C/Cl)c1cc(Cl)c(Cl)cc1Cl")
"inactive"
>>> discretelabel("CS/C(C)=N/OC(=O)N(C)SN(C)C(=O)O/N=C(\\C)SC")
"active"
>>> discretelabel("COc1ccc(/C(=C/C(=O)N2CCOCC2)c2ccc(Cl)cc2)cc1OC")
"inactive"
>>> discretelabel("C=C1C[C@@H]2[C@H](CC[C@]3(C)C(=O)CC[C@@H]23)[C@@]2(C)C=CC(=O)C=C12")
"inactive"
>>> discretelabel("[O]=[Cd]")
"inactive"
>>> discretelabel("OP(O)c1ccccc1")
"inactive"

###

Measured activation values are reported for all entries that follow.
# target: Muscarinic acetylcholine receptor M1 (Homo sapiens) (UniProt P11229)
# Sequence (P11229 whole entry, looked up): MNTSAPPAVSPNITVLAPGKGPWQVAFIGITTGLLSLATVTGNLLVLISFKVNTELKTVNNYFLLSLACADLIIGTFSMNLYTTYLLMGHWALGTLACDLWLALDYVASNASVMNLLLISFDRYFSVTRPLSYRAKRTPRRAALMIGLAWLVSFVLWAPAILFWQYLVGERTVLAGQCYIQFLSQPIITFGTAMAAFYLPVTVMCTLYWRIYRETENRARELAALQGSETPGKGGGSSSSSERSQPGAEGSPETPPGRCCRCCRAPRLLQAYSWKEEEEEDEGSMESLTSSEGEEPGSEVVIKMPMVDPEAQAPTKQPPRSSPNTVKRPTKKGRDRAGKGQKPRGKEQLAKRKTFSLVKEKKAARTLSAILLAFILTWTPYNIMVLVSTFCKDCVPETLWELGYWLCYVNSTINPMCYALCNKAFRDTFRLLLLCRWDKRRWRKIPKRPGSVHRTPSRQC
# procedureText: Cholinergic receptor muscarinic 1 (CHRM1) small molecule agonists, cell-based qHTS assay (AID 1963589); also: % is scaled to controls: 0 for no effect and ±100 for the full control effect; nearly all actives have a fitted effect of over 35% in size
# runParameters: CHRM1-CHO cells, agonist mode, calcium flux fluorescence; series mostly up to 76.8 µM
Activity calls are given as the source filed them. The call rests on the fitted dose curve.
readoutName: activation

>>> obsvalue("Cc1ccc2nc3sc(=O)sc3nc2c1")
"-0.991% [at 15.8 µM] (inactive)"
>>> obsvalue("CC(=O)[O-].CC(=O)[O-].CC(=O)[O-].[Sb+3]")
"-0.154% [at 2.72 µM] (inactive)"
>>> obsvalue("CCCCCCCCCCCCN=C(N)N")
"-0.462% [at 2.72 µM] (inactive)"
>>> obsvalue("CC(=O)OCC1=C(C(=O)O)N2C(=O)[C@@H](N)[C@H]2SC1")
"0.141% [at 15.8 µM] (inactive)"

###

# procedureText: p53 small molecule agonists, cell-based qHTS assay: qHTS cell viability counter screen (AID 1963581); also: % is scaled to controls: 0 for no effect and ±100 for the full control effect; nearly all actives have a fitted effect of over 45% in size
# runParameters: p53RE-bla HCT-116 viability, ATP luminescence, 16 h; series mostly up to 66 µM
Records with an inconclusive call do not appear. The source made the active and inactive calls. Calls follow the shape of the full dose curve.
readoutName: outcome

>>> obsvalue("ClCc1ccc(Cl)cc1Cl")
"inactive"
>>> obsvalue("CNC(=O)Oc1cccc(C(C)C)c1")
"inactive"
>>> obsvalue("CCNS(=O)(=O)C(F)(F)C(F)(F)C(F)(F)C(F)(F)C(F)(F)C(F)(F)C(F)(F)C(F)(F)F")
"inactive"
>>> obsvalue("Cc1cc(C)c(C(=O)P(=O)(C(=O)c2c(C)cc(C)cc2C)c2ccccc2)c(C)c1")
"inactive"
>>> obsvalue("CCOC(=O)CC(=O)CCl")
"inactive"
>>> obsvalue("COc1cccc(C(=O)CCN[C@@H](C)[C@H](O)c2ccccc2)c1")
"inactive"
>>> obsvalue("ClC(Cl)=C(c1ccc(Cl)cc1)c1ccccc1Cl")
"inactive"
>>> obsvalue("CN1CCC(O)(c2ccc(F)cc2)C(C(=O)c2ccc(F)cc2)C1 (configuration not stated)")
"inactive"
>>> obsvalue("COc1ccc(/C(=C/C(=O)N2CCOCC2)c2ccc(Cl)cc2)cc1OC")
"inactive"
>>> obsvalue("CCCCCCCCCCCCN(C)C")
"inactive"
>>> obsvalue("CCC1(C2=NCCN2)Cc2ccccc2O1 (configuration not stated)")
"inactive"
>>> obsvalue("CCc1ccccc1N")
"inactive"

###

# procedureText: p53 small molecule agonists, cell-based qHTS assay with rat liver microsomes: qHTS cell viability counter screen (AID 1963580); also: nearly all actives have a fitted effect of over 45% in size
# runParameters: p53RE-bla HCT-116 + rat microsomes, ATP viability, 16 h; series mostly up to 66 µM
Inconclusive results are not listed. The source made the active and inactive calls. Calls follow the shape of the full dose curve.
Outcome codes: active, inactive

>>> discretelabel("CCCCOP(=O)(O)OCCCC")
"inactive"
>>> discretelabel("CCCCCCCCCC(=O)O[C@H]1CC[C@H]2[C@@H]3CCC4=CC(=O)CC[C@@H]4[C@H]3CC[C@]12C")
"inactive"
>>> discretelabel("CCNC(=O)NC(=O)/C(C#N)=N/OC")
"inactive"
>>> discretelabel("C[C@@H]1CC[C@H]2[C@@H](C)C(=O)O[C@@H]3O[C@@]4(C)CC[C@@H]1[C@]32OO4")
"inactive"
>>> discretelabel("C1=CCC=C1")
"inactive"
>>> discretelabel("CC(=O)c1cc(C(C)(C)C)cc2c1CCC2(C)C")
"inactive"
>>> discretelabel("CC(C)(C)NCC(O)c1cc(Cl)c(N)c(Cl)c1 (centres undefined)")
"inactive"
>>> discretelabel("COP(N)(=S)Oc1ccccc1C(=O)OC(C)C (centres undefined)")
"inactive"
>>> discretelabel("CCCN(CCCl)c1c([N+](=O)[O-])cc(C(F)(F)F)cc1[N+](=O)[O-]")
"inactive"
>>> discretelabel("Brc1ccc(Oc2ccc(Br)cc2Br)c(Br)c1")
"inactive"
>>> discretelabel("CC(C)(C)NCC(O)c1cc(Cl)c(N)c(C(F)(F)F)c1 (centres undefined)")
"inactive"
>>> discretelabel("CN(C)CCc1c[nH]c2cccc(O)c12")
"inactive"
>>> discretelabel("O=[N+]([O-])c1cccc2c([N+](=O)[O-])cccc12")
"inactive"
>>> discretelabel("CCSC(C)CC1CC(=O)C(/C(CC)=N/OC/C=C/Cl)=C(O)C1 (centres undefined)")
"inactive"
>>> discretelabel("NC(=O)C(Cl)(Cl)Cl")
"inactive"
>>> discretelabel("C[C@@H](Oc1ccc(Cl)cc1Cl)C(=O)O")
"inactive"
>>> discretelabel("O=[N+]([O-])c1ccc(Oc2ccc(C(F)(F)F)cc2[N+](=O)[O-])cc1")
"inactive"
>>> discretelabel("CCCSP(=O)(OCC)SCCC")
"inactive"
>>> discretelabel("CCOC(=O)OC1=C(c2cc(C)ccc2C)C(=O)NC12CCC(OC)CC2 (centres undefined)")
"inactive"
>>> discretelabel("CCOC1Oc2ccc(OS(C)(=O)=O)cc2C1(C)C (centres undefined)")
"inactive"
>>> discretelabel("Nc1ccc(Sc2ccc(N)cc2)cc1")
"inactive"
>>> discretelabel("Clc1ccccc1-c1ccccc1Cl")
"inactive"
>>> discretelabel("COP(=O)(OC)O/C(=C\\Cl)c1cc(Cl)c(Cl)cc1Cl")
"inactive"
>>> discretelabel("NP(N)(=O)NC(=O)c1ccc(F)cc1")
"inactive"
>>> discretelabel("CN(C)c1ccc(N=Nc2ccccc2)cc1")
"inactive"
>>> discretelabel("Nc1c(Cl)c(Cl)c(Cl)c(Cl)c1Cl")
"inactive"
>>> discretelabel("CCCCP(CCCC)CCCC")
"inactive"
>>> discretelabel("CC(=O)[O][Sn]([c]1ccccc1)([c]1ccccc1)[c]1ccccc1")
"active"
>>> discretelabel("CCCN(CCC)CCc1c[nH]c2ccccc12")
"inactive"
